# Test: Solubility limit in the checkerboard assay
# Assay type: physicochemical
# Details: checkerboard assay medium
Experimental endpoint: solubility

Request the reported solubility associated with Cc1c(Cl)ccc2c1NC(=O)[C@@]21[C@H]2C(=O)N(c3ccccc3)C(=O)[C@H]2[C@H]2CN(C(=O)OCc3ccccc3)CCN21 (racemic)
30 to 300 µM

###

# System: resistant clinical isolates of C. albicans
# Test: EC50 against selected resistant clinical isolates with fluconazole
# Type: cell-based
# Details: Candida albicans, read-out: Potency Cpd 25 EC50, clinical isolate 45; fluconazole 64 μg/mL
Experimental endpoint: EC50 (nM)
Expressed in nM, but write only the number.

Fill in the blank: the reported EC50 of Cc1c(Cl)ccc2c1NC(=O)[C@@]21[C@H]2C(=O)N(c3ccccc3)C(=O)[C@H]2[C@H]2CN(C(=O)OCc3ccccc3)CCN21 (racemic) [Compound 25] is ____.
16

###

# System: resistant clinical isolates of C. albicans
# Test: EC50 against selected resistant clinical isolates with fluconazole
# Format: cell-based
# Details: Candida albicans, read-out: Potency Cpd 25 EC50, clinical isolate 33; fluconazole 64 μg/mL
Experimental endpoint: EC50 (nM)
Please respond with the number in nM and leave the unit unwritten.

Lab note: need EC50 with resistant clinical isolates of C. albicans for entry Cc1c(Cl)ccc2c1NC(=O)[C@@]21[C@H]2C(=O)N(c3ccccc3)C(=O)[C@H]2[C@H]2CN(C(=O)OCc3ccccc3)CCN21 (racemic) [Compound 25] , please look it up.
11

###

# Tested on: C. albicans
# Test: Drug susceptibility assay in combination with azole antifungals and other Cdr1/Mdr1 substrates
# Format: cell-based, Candida albicans
# Details: Candida albicans, MDR1, with clotrimazole 0.221 μg/mL
# Method: Drug susceptibility assay. All the assays were carried out with SC medium in 24-well plates. […] Plates were incubated at 30° C. for 15 h. Cell growth was measured by reading absorbance at 600 nm. […] EC50 values were calculated by nonlinear regression curve fit of log (concentration) versus the % cell growth. Compound 1 was also studied to determine if it can synergize with all azole antifungals and non-azole drugs that are known Cdr1 substrates. […]
Experimental endpoint: EC50 (nM)
Answer format: numeric, nM implied, no suffix.

>>> readout_value("Cc1c(Cl)ccc2c1NC(=O)[C@@]21[C@H]2C(=O)N(c3ccccc3)C(=O)[C@H]2[C@H]2CN(C(=O)OCc3ccccc3)CCN21 (racemic) [Compound 25]")
150

API: value(readout= EC50, system= C. albicans, query= Cc1c(Cl)ccc2c1NC(=O)[C@]21N[C@H](Cc2ccccc2)[C@@H]2C(=O)N(c3ccc(F)cc3)C(=O)[C@@H]21 (racemic) [Compound 1] )
500

###

# System: C. albicans
# Test: Drug susceptibility assay in combination with azole antifungals and other Cdr1/Mdr1 substrates
# Format: cell-based, Candida albicans
# Details: Candida albicans, MDR1, with fluconazole 0.500 μg/mL
# Method: Drug susceptibility assay. All the assays were carried out with SC medium in 24-well plates. […] Plates were incubated at 30° C. for 15 h. Cell growth was measured by reading absorbance at 600 nm. […] EC50 values were calculated by nonlinear regression curve fit of log (concentration) versus the % cell growth. Compound 1 was also studied to determine if it can synergize with all azole antifungals and non-azole drugs that are known Cdr1 substrates. […]
Documented EC50 across a set of compounds
Number plus unit, in that order.

>>> readout_value("Cc1c(Cl)ccc2c1NC(=O)[C@@]21[C@H]2C(=O)N(c3ccccc3)C(=O)[C@H]2[C@H]2CN(C(=O)OCc3ccccc3)CCN21 (racemic)")
"11 nM"

Could you now consider this next compound?
Please tell me: EC50 of Cc1c(Cl)ccc2c1NC(=O)[C@]21N[C@H](Cc2ccccc2)[C@@H]2C(=O)N(c3ccc(F)cc3)C(=O)[C@@H]21 (racemic) , system C. albicans?
100 nM
